B1: HDV Ribozyme (parent)
chain: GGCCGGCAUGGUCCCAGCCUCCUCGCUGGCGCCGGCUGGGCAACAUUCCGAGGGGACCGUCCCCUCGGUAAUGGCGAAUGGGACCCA

Variants of: B1
Assay: self-cleavage, relative activity (ratio to wild type); higher = more cleavage; co-transcriptional
metricName: self-cleavage

GGCCGGCAUGGUCCCGGCCUCCUCGCUGGCGCCGGCGGGGCAACAUUCCGAGGGGACCGUCCCCUCGGUAAUGGCGAAUGGGACCCA    0.119
GGCCGGCUUGGUCCCAGCCUCCUCGCUGGCGCCGGCUGGGCAACAUUCCGAGGGGACCGUCCCCUCGGGAAUGGCGAAUGGGACCCA    0.59
GGCCGGCAUGGUCCCAGCCUCCUCGCUGGCGCCGGCUCGGCAACAUUCCGAGGGGACCGUCCCCUCGGGAAUGGCGAAUGGGACCCA    0.356

Please report the recorded self-cleavage for GGCCGGCAUGGUCCCAGCCUCCUCGCUGGCGCCGGCUGGGCAACAUCCCGAGGGGACCAUCCCCUCGGUAAUGGCGAAUGGGACCCA .
0.954

Please report the recorded self-cleavage for GGCCGGCAUGGUCCCAGCCUCCUCGCUGGCACCGGCUGGGCAACAUUCCAAGGGGACCGUCCCCUCGGUAAUGGCGAAUGGGACCCA .
0.626
